system: Jurkat; experiment: Cytotoxicity against human Jurkat cells after 24 hrs by MTT assay; type: functional, cell-based
pIC50: −log10 of the molar value.
reported.property: pIC50

COc1cc(C)cc2c1C(=O)c1c(O)cc(O)c(Cl)c1[C@H]2[C@H]1c2cc(C)cc(OC)c2C(=O)c2c(O)cc(O)c(Cl)c21 | 4.08
CO[C@@H]1CCC[C@H](C)OC(=O)Cc2cc(O)cc(O)c2C(=O)C1 | 5.41

====

Listed next: entries and their corresponding IC50.
tested on: K562; test: Cytotoxicity against human K562 cells after 24 hrs by MTT assay; assay type: functional, cell-based; settings: Homo sapiens, K562, 24 h; read-out: IC50
reported.property: IC50 (µM)

CO[C@H]1CCC[C@H](C)OC(=O)Cc2cc(O)cc(O)c2C(=O)C1 [11ALPHA-METHOXYCURVULARIN] | 41.1
C/C=C/C=C/C(=O)C1=C(O)[C@@]2(C)[C@H]3C(C(=O)/C=C/C=C/C)=C(O)[C@@]4(C)[C@@H]1[C@]1(C)O[C@@]4(O)[C@@]3(C)O[C@@]12O [TRICHODIMEROL] | 74.4
C[C@H]1CCC/C=C/C(=O)c2c(O)cc(O)cc2CC(=O)O1 [DEHYDROCURVULARIN] | 37
CO[C@@H]1CCC[C@H](C)OC(=O)Cc2cc(O)cc(O)c2C(=O)C1 [11BETA-METHOXYCURVULARIN] | 12.4
COc1cc(C)cc2c1C(=O)c1c(O)cc(O)c(Cl)c1C2=O | 24.8
COc1cc(CO)cc2c1C(=O)c1c(O)cc(O)c(Cl)c1C2=O | 40.1
